B1: TRIM35 (parent)
chain: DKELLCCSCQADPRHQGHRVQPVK

# Variants of: B1
# experiment_description: protein stability index of a GFP-peptide fusion (GPS, HEK-293T) (PSI 1-6); higher = more stable;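 also: lentivirally expressed fusions sorted by FACS into six bins by GFP to DsRed ratio, PSI derived from sequencing read proportions per bin multiplied by bin number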
# measurement_context: c terminus: a fixed tail appended
Label scheme for protein stability index: lower than 3 is -1, 3 and above is 1.

For orientation, consider the following solved cases.
L4Y: 1
S8A: 1
E3Y: -1
C6S: 1
E3N: 1

Exam item: Reported protein stability index reaches at least 3 for "H18G" ?
Marked response: 1

Exam item: Reported protein stability index reaches at least 3 for "Q16H" ?
Marked response: 1

Exam item: Reported protein stability index reaches at least 3 for "Q21F" ?
Marked response: -1

Exam item: Reported protein stability index reaches at least 3 for "D12L" ?
Marked response: -1
